tested on: E21 (patient-derived glioblastoma stem cells of mesenchymal subtype); assay: surviving fraction (nuclei count normalised to DMSO); higher = more cells surviving (less toxic); conditions: 4.1 nM; exposure time: 72 h
Listed molecules paired with reported surviving fraction

Mol | surviving fraction
CCn1c(-c2nonc2N)nc2cnc(Oc3cccc(NC(=O)c4ccc(OCCN5CCOCC5)cc4)c3)cc21 | 0.933
Nc1nc2n[nH]nc2c(=O)[nH]1 | 0.917
Cc1cc(C)c(CN2CCc3c(Cl)cc(-c4c(C)noc4C)c(Cl)c3C2=O)c(=O)[nH]1 | 0.906
CN1C(=O)[C@@]23C[C@]4([C@]56C[C@@]78SS[C@@](CO)(C(=O)N7[C@H]5Nc5ccccc56)N(C)C8=O)c5ccccc5N[C@@H]4N2C(=O)[C@]1(CO)SS3 | 0.253

---

// reported phenotypic distance for each item listed
tested on: E13 (patient-derived glioblastoma stem cells of classical subtype); assay: phenotypic distance (Euclidean, principal components) from DMSO controls (arbitrary units); higher = stronger morphological change; conditions: 12.3 nM; exposure time: 72 h;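 also: cell Painting imaging in 384-well plates, CellProfiler features reduced to at least 20 principal components, Euclidean distance versus same-plate DMSO vehicle wells (0.1% v/v), median over six images per well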
Measured Attribute: phenotypic distance

Compound | Measured Attribute | Observed
O=C(Oc1cccc2cccnc12)c1ccccc1 [Benzoxiquine] | phenotypic distance | 1.14
Cn1nnc2c(C(N)=O)ncn2c1=O [Temozolomide] | phenotypic distance | 0.797
COc1cc(N)c(Cl)cc1C(=O)NC1CCN(CCCOc2ccc(F)cc2)CC1OC (stereo not drawn) [Cisapride] | phenotypic distance | 0.288

---

system: E31 (patient-derived glioblastoma stem cells of proneural subtype); test: surviving fraction (nuclei count normalised to DMSO); higher = more cells surviving (less toxic); settings: 37 nM; exposure time: 72 h
Counter-ions that a name gives are not always drawn.
Measured Attribute: surviving fraction

Molecule | Measured Attribute | Observed
CN(C(=O)CN(CCO)CC(=O)N(C)C(C)(C)Cc1ccccc1)C(C)(C)Cc1ccccc1 | surviving fraction | 1.03
CCOC(=O)C1=C(C)NC(C)=C(C(=O)OCC)C1c1c(F)c(F)c(F)c(F)c1F | surviving fraction | 1.01
CC(C)C[C@H](NC(=O)[C@H](CCc1ccccc1)NC(=O)CN1CCOCC1)C(=O)N[C@@H](Cc1ccccc1)C(=O)N[C@@H](CC(C)C)C(=O)[C@@]1(C)CO1 | surviving fraction | 0.00651
CC1=C(/C=C/C(C)=C/C=C/C(C)=C/C(=O)Nc2ccc(O)cc2)C(C)(C)CCC1 [Retinoic acid p-hydroxyanilide] | surviving fraction | 0.993
CC(C)NCC(O)COc1cccc2ccccc12 (stereo not given) [Propranolol hydrochloride] | surviving fraction | 1.1
OC[C@H]1O[C@@H](Oc2ccc(O)cc2)[C@H](O)[C@@H](O)[C@@H]1O | surviving fraction | 0.945
COc1ccc(C(=O)CC(=O)c2ccc(C(C)(C)C)cc2)cc1 | surviving fraction | 1.02
N=c1ccn2c(n1)O[C@H]1[C@H](O)[C@@H](CO)O[C@H]12 [Ancitabine hydrochloride] | surviving fraction | 0.721
COc1cc2c(cc1-c1c(C)noc1C)ncc1[nH]c(=O)n([C@H](C)c3ccccn3)c12 | surviving fraction | 1.18
COc1c(N2CCNC(C)C2)c(F)cc2c(=O)c(C(=O)O)cn(C3CC3)c12 (stereo not given) | surviving fraction | 0.946
CC(C)(Oc1ccc(C2CC2(Cl)Cl)cc1)C(=O)O (stereo not given) [Ciprofibrate] | surviving fraction | 0.955
CC[C@@]1(O)C(=O)OCc2c1cc1n(c2=O)Cc2cc3cc(O)ccc3nc2-1 [Hydroxy Camptothecine] | surviving fraction | 0.174
CCCCCCC[N+](CC)(CC)CCCCc1ccc(Cl)cc1 [Clofilium tosylate] | surviving fraction | 1.04
N=C(N)c1ccc(-c2ccc(-c3ccc(C(=N)N)cc3)o2)cc1 [Furamidine dihydrochloride] | surviving fraction | 0.911
CC(=O)OC[C@H]1O[C@@H]([S-])[C@H](OC(C)=O)[C@@H](OC(C)=O)[C@@H]1OC(C)=O.CCP(CC)CC.[Au+] | surviving fraction | 1.03
CC(C)CC(=O)N[C@H](C(=O)N[C@H](C(=O)N[C@@H](CC(C)C)[C@@H](O)CC(=O)N[C@@H](C)C(=O)N[C@@H](CC(C)C)[C@@H](O)CC(=O)O)C(C)C)C(C)C | surviving fraction | 1
CCN(CC)Cc1ccc(C(=O)N(CCc2ccccc2OC)[C@@H]2CCNC2)cc1 | surviving fraction | 1.01
CN1C(=O)OC(C)(C)C1=O | surviving fraction | 0.936
CCN1CCN(C(=O)Cc2ccc(Nc3ncc(F)c(Nc4ccc(C(=O)Nc5ccccc5Cl)cc4)n3)cc2)CC1 | surviving fraction | 0.989
CCCCCCCCCCCCCCCC[N+](C)(C)CCN(Cc1ccc(OC)cc1)c1ncccn1 [Thonzonium bromide] | surviving fraction | 1.09
COC(=O)Nc1nc2cc(Sc3ccccc3)ccc2[nH]1 | surviving fraction | 0.836
Nc1ccc(-c2ccc3ncc4ccc(=O)n(-c5cccc(C(F)(F)F)c5)c4c3c2)cn1 | surviving fraction | 0.612
C=CC(=O)Nc1cc(Nc2nccc(-c3cn(C)c4ccccc34)n2)c(OC)cc1N(C)CCN(C)C [Osimertinib mesylate] | surviving fraction | 1.02
CCn1cc(C(=O)O)c(=O)c2cc(F)c(N3CCNCC3)nc21 | surviving fraction | 1.09
Nc1nc(Cl)nc2c1ncn2[C@@H]1O[C@H](CO)[C@@H](O)[C@@H]1F | surviving fraction | 0.64
